Cited source: the supplement of paper PMC9170038

# apparent KD of K4 kissing-loop reporter annotations
Test system: K4 kissing-loop RNA reporter;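 also: bound reporter read as fluorescence of individual clusters on recovered sequencing chips by microscopy, with normalized cluster intensities fitted with a binding model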
Assay Info: apparent KD of K4 kissing-loop reporter; higher = weaker reporter binding
Study Conditions: Eterna round: R107; input ligand: theophylline 20 uM
Field format: number, assumed nM, no unit text.

// worked examples, apparent KD of K4 kissing-loop reporter included
{"columns": ["Biopolymer Sequence", "System Name", "Numeric Value"],
 "data": [
  ["UUAAGGGUCCGAGGAUAUCUCCCAGUGAUGUUGGGCGAUACGGCCCUUAAGACUAAUGGUUGAAGGAGAGAAGGCGGCUCCCGAU [Edmaisle]", "K4 kissing-loop RNA reporter", 136],
  ["CGUUCCUCUGUCGAUACCAGCUUCAGUUGGCGGCCAGUGAUGUUGGUAUUGCCGAUGCCAAGCCCUUGGCAGCGAUAUGAGACCC [Aredi]", "K4 kissing-loop RNA reporter", 265]
]}

INPUT: Look up and report measured apparent KD of K4 kissing-loop reporter for this entry: `GCUAGCAUGGCAGGAUAUAGCAAUAGGAGUGAUGUUCCUUGGUAGGUGAGUGAUGUUCACUACCAACUAGAAGGGCCAUGCUAGC`
OUTPUT: 108

INPUT: State, in one line, measured apparent KD of K4 kissing-loop reporter of AUAAUAAAGACGGCCGCCACUGAGAGUAGUGAUGUUACUCUUUUCCUUUAGAAAUAAUAUUUUAUCAGGACCGGGUUUUUUGAAU [JR_Nu_ExcTryptoB_Sub026]
OUTPUT: 79.6

INPUT: Quickly give me recorded apparent KD of K4 kissing-loop reporter for `UGACUGGACUGAAGGAGCGCGCGAGACAAAGUCUCGAACUCUUAGUGAUGUUAGGAAAUAACGCAGGUAGGUCGCAGUCUAGUCU`
OUTPUT: 473

INPUT: Recall and state the measured apparent KD of K4 kissing-loop reporter for UGACUGGACUGAAGGAGCGCUAAAACUCCUAGUGAUGUUGGGAAAACGAGACAAAGUCUCGAGCAGGUAGGUCGCAGUCUAGUCU [ArgBS 22 #SwitchBubble #StaticStem] .
OUTPUT: 278
